FYI, the data here is from patent US11642336B2.

Biological target: human 5-HT2A (Homo sapiens (Human), UniProt P28223)
Test: cell-based
Assay type: cell-based
Conditions: Ca2+/Fluo-4 assay; bounds are conservative estimates
Label rule, in plain words: Selectivity EC50 5-HT2C/EC50 5-HT2A of 7 and up is true, under 7 is false.

Solved entries:
INSERT INTO results (compound, discrete_label) VALUES
  ('CCOc1cc([C@@H]2CCCNC2)c(OC)cc1CC.Cl', 'true'),
  ('COc1cc(C(F)(F)F)c(OC)cc1[C@@H]1CNC[C@@H](C)C1.Cl (relative stereo)', 'true'),
  ('CCSc1cc([C@H]2CCCNC2)c(OC)cc1C(F)(F)F.Cl', 'true'),
  ('COc1cc(C(F)(F)F)c(OC)cc1[C@H]1CCNC1', 'false'),
  ('COc1cc([C@H]2CCNC2)c(OC)cc1Br', 'false');

Entry COc1cc(C(F)(F)F)c(OC)cc1C1CCCNC1C.Cl (stereo not drawn) : is its Selectivity EC50 5-HT2C/EC50 5-HT2A no less than 7?
true

# check: Selectivity EC50 5-HT2C/EC50 5-HT2A of `Br.COc1cc([C@@H]2CCNC2)c(OC)cc1Br` is greater than or equal to 7
false

----------
Reported 5-HT2C Rmax ± S.E.M values follow for various compounds
Target: 5-HT2C (Homo sapiens (Human))
Sequence (P28335 whole entry, looked up): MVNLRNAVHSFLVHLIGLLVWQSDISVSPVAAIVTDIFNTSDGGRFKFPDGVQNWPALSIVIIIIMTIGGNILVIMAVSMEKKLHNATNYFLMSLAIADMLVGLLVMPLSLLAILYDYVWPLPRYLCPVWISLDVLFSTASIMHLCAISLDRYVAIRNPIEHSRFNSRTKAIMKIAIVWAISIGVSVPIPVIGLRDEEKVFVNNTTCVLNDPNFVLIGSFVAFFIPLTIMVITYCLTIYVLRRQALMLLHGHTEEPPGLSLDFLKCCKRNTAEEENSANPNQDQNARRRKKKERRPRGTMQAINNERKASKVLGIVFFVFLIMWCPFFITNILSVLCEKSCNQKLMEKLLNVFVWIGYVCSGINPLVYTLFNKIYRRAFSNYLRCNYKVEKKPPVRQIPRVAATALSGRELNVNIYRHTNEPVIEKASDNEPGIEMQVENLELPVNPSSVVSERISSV
Experiment: Ca2+/Fluo-4 assay, stable h5-HT2C-HEK293 cell line
Format: cell-based
Conditions: % of the Rmax of 5-HT
Unit % implied. Number only.

INSERT INTO measurements (compound, measured_result) VALUES
  ('COc1cc([C@@H]2CCCNC2)ccc1C(F)(F)F.Cl [Compound 49]', 35),
  ('COc1cc(C2CC[C@@H](c3ccccc3OC)NC2)c(OC)cc1Br (some centres unmarked) [Compound 8a, reference compound]', 82),
  ('COc1cc(C(F)(F)F)c(OC)cc1C1CCCNC1C.Cl (centres unmarked) [Compound 35]', 21),
  ('CCSc1cc([C@H]2CCCNC2)c(OC)cc1C(F)(F)F.Cl [Compound 46]', 53),
  ('COc1cc(C(F)(F)F)c(OC)cc1[C@H]1CCNC1 [Compound 5]', 65);

Simply: COc1cc(CC(C)N)c(OC)cc1I (centres unmarked) [drawing 22, reference compound] , 5-HT2C (Homo sapiens (Human)), 5-HT2C Rmax ± S.E.M = 83

5-HT2C (Homo sapiens (Human)) data for CCOc1cc([C@@H]2CCCNC2)c(OC)cc1CC.Cl [Compound 34] ; its 5-HT2C Rmax ± S.E.M: 28

Value sought: 5-HT2C Rmax ± S.E.M, system 5-HT2C (Homo sapiens (Human)), item COc1cc(C(F)(F)F)c(SC)cc1[C@H]1CCCNC1.Cl [Compound 44] . Result: 50

Measured 5-HT2C Rmax ± S.E.M for this entry COc1cc(C(F)(F)F)c(OC)cc1C1CNC1.Cl [Compound 2] on 5-HT2C (Homo sapiens (Human)): 87

----------
Target: 5-HT2C (Homo sapiens (Human))
Assay: Ca2+/Fluo-4 assay, stable h5-HT2C-HEK293 cell line;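 note: Agonist-induced intracellular Ca2+ rise read by Fluo-4 fluorescence in HEK293 cells stably expressing the human 5-HT2C receptor, each compound run in duplicate on three or more occasions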
Type: cell-based
Conditions: tested up to 50 μM
Structures can show the parent of a compound that is named as a salt.
Readout type: 5-HT2C agonist activity (n.a./w.a.)

INSERT INTO assay_data (compound, measured_result) VALUES
  ('CCCCc1cc(OC)c([C@@H]2CCCNC2)cc1OC [Compound 57, hydrochloride]', 'w.a.'),
  ('COc1cc(C(F)(F)F)c(OC)cc1[C@H]1CCCN(C)C1 [Compound 60]', 'w.a.'),
  ('COc1cc([C@@H]2CCCNC2)c(OC2CC2)cc1C(F)(F)F [Compound 55, hydrochloride]', 'w.a.');
